Data provenance is ChEMBL document CHEMBL1268837.

molecular target: Calcitonin gene-related peptide type 1 receptor (Homo sapiens, UniProt O60894+Q16602); test: Binding affinity to human recombinant CGRP receptor
Sequence (Q16602 whole entry, one chain of several): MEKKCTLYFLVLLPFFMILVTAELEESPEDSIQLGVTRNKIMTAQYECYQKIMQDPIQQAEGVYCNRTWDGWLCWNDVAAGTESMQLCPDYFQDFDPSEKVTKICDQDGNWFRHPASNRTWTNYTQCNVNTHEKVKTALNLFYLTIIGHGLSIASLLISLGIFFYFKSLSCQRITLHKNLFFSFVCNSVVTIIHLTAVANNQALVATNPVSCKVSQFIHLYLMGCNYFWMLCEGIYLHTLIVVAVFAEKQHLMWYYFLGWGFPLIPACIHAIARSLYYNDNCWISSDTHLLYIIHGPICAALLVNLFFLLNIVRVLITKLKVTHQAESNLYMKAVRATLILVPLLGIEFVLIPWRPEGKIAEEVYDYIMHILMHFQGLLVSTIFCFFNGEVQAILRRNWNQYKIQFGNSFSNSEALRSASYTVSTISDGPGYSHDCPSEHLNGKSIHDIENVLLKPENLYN
Quantity Kind: Ki
Number first, unit second: that is the form wanted.

Solved cases below.
1. CN1C(=O)NC(=O)C12Cc1cc3ccc(CN(Cc4ccccc4)C(=O)C(C)(C)C)nc3cc1C2 (stereo not drawn)    2.2 nM
2. CN1C(=O)NC(=O)[C@]12Cc1cc3cc(CN(Cc4ccccc4)C(=O)C(C)(C)C)cnc3cc1C2    12 nM

For the next question, use this compound.
Return Ki measured with Calcitonin gene-related peptide type 1 receptor (Homo sapiens, UniProt O60894+Q16602) given this compound: CN1C(=O)NC(=O)C12Cc1cc3cc(CN(Cc4ccccc4)C(=O)C(C)(C)C)cnc3cc1C2 (stereo not drawn) 35 nM

* * *

Provide the recorded Ki for the entries that follow.
molecular target: Calcitonin gene-related peptide type 1 receptor (Homo sapiens, UniProt O60894+Q16602); assay: Displacement of [125I]hCGRP from human cloned CGRP receptor expressed in HEK293 cells; assay type: cell-based
Number first, unit second: that is the form wanted.

Solved cases below.
1) CC1(C)CC[C@@H](c2cc(F)cc(F)c2)N(Cc2cnc3cc4c(cc3c2)C[C@@]2(C4)C(=O)Nc3ncccc32)C1=O    0.3 nM
2) C[C@H](c1ccccc1)N(Cc1cnc2cc3c(cc2c1)C[C@@]1(C3)C(=O)Nc2ncccc21)C(=O)C(C)(C)C    0.1 nM
3) CC(C)(C)C(=O)N(Cc1cnc2nc3c(cc2c1)C[C@@]1(C3)C(=O)Nc2ncccc21)[C@@H]1CCc2ccccc21    0.15 nM
4) CC(C)(C)C(=O)N(Cc1cnc2cc3c(cc2c1)C[C@@]1(C3)C(=O)Nc2ncccc21)C[C@@H]1CCc2ccccc21    0.037 nM
5) CC(C)(C)C(=O)N(Cc1ccccc1)Cc1cnc2cc3c(cc2c1)C[C@@]1(C3)C(=O)Nc2ncccc21    1.3 nM

List Ki for every entry below, keeping the order given.
1. C[C@H](c1cc(F)cc(F)c1)N(Cc1cnc2cc3c(cc2c1)C[C@@]1(C3)C(=O)Nc2ncccc21)C(=O)C(C)(C)C
2. CC(C)(C)C(=O)N(Cc1cc(F)cc(F)c1)Cc1cnc2cc3c(cc2c1)C[C@@]1(C3)C(=O)Nc2ncccc21

1. 0.12 nM
2. 0.69 nM

Data request, read-out Ki, for CC(C)(C)C(=O)N(Cc1ccc2nc3c(cc2c1)C[C@@]1(C3)C(=O)Nc2ncccc21)[C@@H]1CCc2ccccc21 0.11 nM
